Hello, the source for this data is paper PMC11746154, in case you need it.

B1: LexA-Rec102 [S. cerevisiae] / Gal4AD-Spo11 [S. cerevisiae] (parent)
chain 1: MALEGLRKKYKTRQELVKALTPKRRSIHLNSNGHSNGTPCSNADVLAHIKHFLSLAANSLEQHQQPISIVFQNKKKKGDTSSPDIHTTLDFPLNGPHLCTHQFKLKRCAILLNLLKVVMEKLPLGKNTTVRDIFYSNVELFQRQANVVQWLDVIRFNFKLSPRKSLNIIPAQKGLVYSPFPIDIYDNILTCENEPKMQKQTIFPGKPCLIPFFQDDAVIKLGTTSMCNIVIVEKEAVFTKLVNNYHKLSTNTMLITGKGFPDFLTRLFLKKLEQYCSKLISDCSIFTDADPYGISIALNYTHSNERNAYICTMANYKGIRITQVLAQNNEVHNKSIQLLSLNQRDYSLAKNLIASLTANSWDIATSPLKNVIIECQREIFFQKKAEMNEIDARIFEYK
chain 2: MARDITFLTVFLESCGAVNNDEAGKLLSAWTSTVRIEGPESTDSNSLYIPLLPPGMLKIKLNFKMNDRLVTEEQELFTKLREIVGSSIRFWEEQLFYQVQDVSTIENHVILSLKCTILTDAQISTFISKPRELHTHAKGYPEIYYLSELSTTVNFFSKEGNYVEISQVIPHFNEYFSSLIVSQLEFEYPMVFSMISRLRLKWQQSSLAPISYALTSNSVLLPIMLNMIAQDKSSTTAYQILCRRRGPPIQNFQIFSLPAVTYNK

Variants of: B1
TEST NAME: Y2H quantitative β-galactosidase assay
MEASUREMENT SETUP: with Gal4AD-Spo11 [S. cerevisiae]; parent: 1; read off a plot
PROPERTY NAME: response (normalized β-gal units)

Solved cases below.
[[record]]
variant_string = "chain 2 Q239A"
reading = 0.27

[[record]]
variant_string = "chain 2 I249A"
reading = 0.9

[[record]]
variant_string = "chain 2 R199A"
reading = 0.02

[[record]]
variant_string = "chain 2 W202A"
reading = 0.1

[[record]]
variant_string = "chain 2 L198A"
reading = 0.15


Incoming: response (normalized β-gal units) lookup needed for chain 2 S233A , thanks.
Outgoing: 0.12

Incoming: response (normalized β-gal units) lookup needed for chain 2 I195A , thanks.
Outgoing: 0.2

Incoming: response (normalized β-gal units) lookup needed for chain 2 L207A , thanks.
Outgoing: 2
